Task for the reader: assign each of the following compounds its reported inhibition.
experimental_target: AP-2 complex subunit beta (Homo sapiens) (UniProt P63010)
Sequence (P63010 whole entry, looked up, one chain of several): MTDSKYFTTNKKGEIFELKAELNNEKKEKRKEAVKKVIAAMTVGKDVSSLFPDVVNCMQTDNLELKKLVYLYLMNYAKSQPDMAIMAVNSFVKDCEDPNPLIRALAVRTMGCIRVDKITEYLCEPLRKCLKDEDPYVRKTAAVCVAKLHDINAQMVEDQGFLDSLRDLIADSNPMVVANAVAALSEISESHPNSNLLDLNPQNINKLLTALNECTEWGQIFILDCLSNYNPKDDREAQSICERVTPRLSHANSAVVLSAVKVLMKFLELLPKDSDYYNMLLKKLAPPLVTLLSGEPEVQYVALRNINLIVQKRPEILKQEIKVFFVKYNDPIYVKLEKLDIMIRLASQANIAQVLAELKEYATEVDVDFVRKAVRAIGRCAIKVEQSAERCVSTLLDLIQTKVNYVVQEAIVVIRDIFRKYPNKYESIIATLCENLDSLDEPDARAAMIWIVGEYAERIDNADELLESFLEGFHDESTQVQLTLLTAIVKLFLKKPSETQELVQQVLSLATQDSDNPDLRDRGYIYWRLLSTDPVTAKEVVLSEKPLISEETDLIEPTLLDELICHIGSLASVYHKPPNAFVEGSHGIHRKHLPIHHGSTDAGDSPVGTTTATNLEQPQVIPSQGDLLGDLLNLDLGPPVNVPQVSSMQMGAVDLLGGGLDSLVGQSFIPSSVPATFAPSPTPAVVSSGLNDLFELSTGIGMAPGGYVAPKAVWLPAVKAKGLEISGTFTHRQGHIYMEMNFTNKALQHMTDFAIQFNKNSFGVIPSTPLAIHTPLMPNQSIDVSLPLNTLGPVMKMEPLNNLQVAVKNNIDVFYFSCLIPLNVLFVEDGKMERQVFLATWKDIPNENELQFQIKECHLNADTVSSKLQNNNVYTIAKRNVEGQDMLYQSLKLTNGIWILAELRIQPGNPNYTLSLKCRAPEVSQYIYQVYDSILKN
assay: beta-arrestin/AP2 interaction blockers – biochemical, validation set, GST-AP2 beads, flow cytometry, pilot screen (AID 504541);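 further: AP2 carries R879A mutation and is captured from E. coli lysate; bead-bound FITC arrestin peptide fluorescence measuring arrestin peptide binding to AP2; 0% = DMSO wells and 100% = excess unlabeled arrestin peptide control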
experimental_setup: FITC arrestin peptide, at 10 µM, stronger effect = higher value, AP2 beta2 appendage fragment, R879A mutant
Calls of active or inactive are those of the source.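 How the source made its calls: active means inhibition above 54%, about 3 SD of non-fluorescent compounds; inactive means the rest.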

# inhibition of CC(=O)Nc1ccc(CN2CCN(C3CCCCC3)C(CCO)C2)cc1 (centres undefined) = -3.58% (inactive)

# inhibition of N#C/C(=C\c1ccc(O)c(O)c1)C(=O)NCCCc1ccccc1 = 25.2% (inactive)

# inhibition of O=C(/C=C/c1ccccc1)c1ccccc1 = -4.66% (inactive)

# inhibition of COc1ccc(C2CC(c3ccc([N+](=O)[O-])cc3)=NN2C(=O)c2ccccc2)cc1OC (centres undefined) = 65.2% (active)

====

Task for the reader: assign each of the following compounds its reported double positive events.
assay: reduced mouse 2C T cell binding to pMHC/ICAM-1 vesicles – MLPCN validation set, flow cytometry, LFA-1/ICAM-1 modulator project, pilot screen (AID 2523)
experimental_setup: 2C mouse CD8+ T cells, at 7 µM, stronger effect = lower value; measured here: CD8+/vesicle+ event percentage
Note: unit % is implicit; provide only the numeric part.

# double positive events of Cc1ccc(Cl)c(Nc2ccccc2C(=O)O)c1Cl = 60.7

# double positive events of COc1ccc(O)c(C2=Nc3ccccc3N=C(c3ccccc3)C2)c1 = 58.3

# double positive events of CC(=O)c1cc2c(cc1NC(=O)c1ccco1)OCCO2 = 58.2

# double positive events of CN1CCN(CCCN2c3ccccc3Sc3ccc(Cl)cc32)CC1 = 61.4

# double positive events of O=C(Cc1c[nH]c2ccccc12)OCCOC(=O)Cc1c[nH]c2ccccc12 = 60.9

# double positive events of CSCCC(NC(=O)OC(C)(C)C)C(=O)Oc1ccc2c(=O)c(-c3ccc4c(c3)OCCO4)coc2c1 (configuration not stated) = 59.4

# double positive events of COc1cc2c(cc1OC)C(=S)NC(C)(C)C2 = 60.1

# double positive events of Cc1coc2c1c(C)cc1oc(=O)c(Cc3ccccc3)c(C)c12 = 56.9

# double positive events of CCOc1ccc2nc(N/C(N)=N/S(C)(=O)=O)nc(C)c2c1 = 67.9

# double positive events of COc1ccccc1N1CCN(CC(O)COc2cccc3ccccc23)CC1 (configuration not stated) = 64.3

# double positive events of COc1ccc(C(=O)NCC2OCCc3ccccc32)cc1 (configuration not stated) = 64.3

# double positive events of COc1ccc(C(CC(=O)N2CCOCC2)C(C)C)cc1 (configuration not stated) = 55.7

====

experimental_target: Beta-adrenergic receptor kinase 1 (Homo sapiens)
assay: GRK2 binders displacing RNA aptamer, biochemical, validation, human GRK2, bead flow cytometry (AID 488806)
experimental_setup: bead-bound GRK2, FAM-aptamer displacement, at 10 µM, stronger effect = higher value
property_measured: aptamer binding inhibition (%)
Note: unit % is implicit; provide only the numeric part.

# aptamer binding inhibition of O=C(CC1SC(=O)NC1=O)Nc1ccc(Cl)cc1 (stereo not drawn) = -1

# aptamer binding inhibition of COc1cc2oc(-c3ccc(O)cc3)cc(=O)c2c(OC)c1O = 3

# aptamer binding inhibition of COc1ccc2c(c1OC)C(C1c3c(cc4c(c3OC)OCO4)CCN1C)OC2=O (stereo not drawn) = 1

# aptamer binding inhibition of Cc1ccc(C(=O)O)cc1NC(=O)c1cccs1 = 8

# aptamer binding inhibition of CC(=O)N(CCC(Cc1ccccc1)c1ccco1)Cc1ccco1 (stereo not drawn) = 1

# aptamer binding inhibition of CC(=O)c1c[nH]c2ccc(C)cc2c1=O = 0

# aptamer binding inhibition of c1ccc(CC2=NCCN2)cc1 = -2

# aptamer binding inhibition of CC(C)c1ccc(NC(=O)CNS(=O)(=O)c2ccc(F)cc2)cc1 = -1

# aptamer binding inhibition of O=C(NCCNc1ccc(Cl)cc1[N+](=O)[O-])c1cccnc1 = -6

# aptamer binding inhibition of CCc1ccc(/C=C2\Oc3cc(OC(=O)N4CCOCC4)ccc3C2=O)cc1 = 4

# aptamer binding inhibition of Cc1ccc(C(=O)COC(=O)c2cnccn2)cc1[N+](=O)[O-] = 4

# aptamer binding inhibition of COc1c(C=O)c(CCN(C)C(=O)c2ccc(F)cc2)cc2c1OCO2 = 4

# aptamer binding inhibition of Cc1ccc(C)c(OCCCC(C)(C)C(=O)O)c1 = 4

# aptamer binding inhibition of CCOC(=O)C1=C[C@]2(CC)CCCN3CCc4c(n1c1ccccc41)[C@@H]32 = -1

# aptamer binding inhibition of COc1ccc(/C=C2\CC/C(=C\c3ccc(OC)c(OC)c3)C2=O)cc1OC = 3

# aptamer binding inhibition of c1coc(-c2nnc3n2C2(CCCC2)Cc2ccccc2-3)c1 = 4

# aptamer binding inhibition of Clc1cc(-c2ccc(/C=N/n3cnnc3)o2)ccc1Br = -5

# aptamer binding inhibition of O=C(c1ccco1)N1CCCN(Cc2nc(-c3ccc4c(c3)OCO4)no2)CC1 = 2
